Biological target: FL hMALT1 enzyme (Homo sapiens);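 also: Cell-free protease assay: enzyme preincubated with compound 30 min at room temperature, then cleavage of fluorogenic Ac-LVSR-AMC substrate (100 µM) tracked by fluorescence (ex 360/em 460 nm)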
Sequence (Q9UDY8 1-824): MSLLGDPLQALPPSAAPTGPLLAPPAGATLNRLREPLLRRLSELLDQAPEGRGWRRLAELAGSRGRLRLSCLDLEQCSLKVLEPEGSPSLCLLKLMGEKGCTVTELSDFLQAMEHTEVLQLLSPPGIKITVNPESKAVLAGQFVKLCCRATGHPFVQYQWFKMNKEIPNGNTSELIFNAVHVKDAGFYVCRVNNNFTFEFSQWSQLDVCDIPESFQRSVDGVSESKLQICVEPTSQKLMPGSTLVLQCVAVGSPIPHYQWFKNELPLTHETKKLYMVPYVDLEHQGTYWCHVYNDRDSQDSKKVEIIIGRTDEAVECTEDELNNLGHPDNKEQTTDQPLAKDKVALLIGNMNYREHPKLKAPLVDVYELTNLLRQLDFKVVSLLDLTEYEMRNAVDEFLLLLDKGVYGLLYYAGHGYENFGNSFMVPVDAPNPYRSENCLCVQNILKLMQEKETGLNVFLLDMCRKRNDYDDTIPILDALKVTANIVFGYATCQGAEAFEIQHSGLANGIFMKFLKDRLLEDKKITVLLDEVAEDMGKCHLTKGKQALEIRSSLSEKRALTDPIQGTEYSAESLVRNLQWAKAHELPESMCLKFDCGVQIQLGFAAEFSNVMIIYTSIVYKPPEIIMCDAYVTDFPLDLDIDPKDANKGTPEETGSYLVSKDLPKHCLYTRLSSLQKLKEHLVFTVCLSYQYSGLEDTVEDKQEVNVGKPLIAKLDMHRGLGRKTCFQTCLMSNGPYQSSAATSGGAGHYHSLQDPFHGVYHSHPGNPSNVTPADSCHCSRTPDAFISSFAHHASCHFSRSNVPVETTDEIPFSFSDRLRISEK
Assay: biochemical
pIC50: −log10 of the molar value.
MEASURED_QUANTITY: pIC50

CN(C(=O)C1CCNC(=O)C1)[C@@H](c1ccc(NC2Cc3ccccc3C2(C)C)cn1)C(F)(F)F (single isomer, unassigned) [Example 119] : 6.82
CN(C(=O)C1CN2CCC1CC2)[C@@H](c1ccc(NC2Cc3ccccc3C2(C)C)nc1)C(F)(F)F (single isomer, unassigned) [Example 122] : 5.94
CN(C(=O)N1CCS(=O)(=O)CC1)[C@@H](c1ccc(NC2Cc3ccccc3C2(C)C)cn1)C(F)(F)F (single isomer, unassigned) [Example 143] : 6.17

[A] CN(C(=O)[C@@H]1CNC(=O)C1)[C@@H](c1ccc(NC2Cc3ccc(Cl)c(Cl)c3C2)cn1)C(F)(F)F (single isomer, unassigned) [Example 318]
[B] CN(C(=O)C1CCC(=O)NC1)[C@@H](c1ccc(NC2Cc3ccccc3C2(C)C)cn1)C(F)(F)F (single isomer, unassigned) [Example 106]
[C] CN(C(=O)C1CCS(=O)(=O)CC1)[C@@H](c1ccc(NC2Cc3cc(Cl)c(OC(F)F)cc3C2)cn1)C(F)(F)F (stereo partly drawn)
## Task In this exercise, place the 3 compounds in ascending sequence of their recorded pIC50. Please list the labels according to the requested order.
## Result A, C, B

Reference source: patent US20260184687A1
